target: KOR (Homo sapiens); experiment: Binding affinity Ki of Table 9
Sequence (P41145 whole entry): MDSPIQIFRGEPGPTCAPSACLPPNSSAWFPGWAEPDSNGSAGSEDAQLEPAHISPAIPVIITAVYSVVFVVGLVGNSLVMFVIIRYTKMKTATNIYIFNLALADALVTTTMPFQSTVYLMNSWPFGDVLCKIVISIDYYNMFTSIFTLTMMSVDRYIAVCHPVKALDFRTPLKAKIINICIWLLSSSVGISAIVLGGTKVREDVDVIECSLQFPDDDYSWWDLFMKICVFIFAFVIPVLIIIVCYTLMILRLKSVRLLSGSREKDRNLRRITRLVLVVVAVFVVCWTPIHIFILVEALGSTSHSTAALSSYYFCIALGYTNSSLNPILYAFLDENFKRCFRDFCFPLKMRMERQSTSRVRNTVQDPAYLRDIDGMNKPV
Below, each entry is listed with its recorded pKi.
Interpret pKi as the negative base-10 log of the concentration measured in mol/L.

Examples from the recorded data:
Cc1ccccc1CSc1nnc(-c2ccccn2)n1Cc1ccco1 6.91
COc1ccc(CSc2nnc(-c3ccccn3)n2Cc2ccco2)cc1 7.55

query: Note down pKi recorded for CC(C)c1ccc(CSc2nnc(-c3ccccn3)n2Cc2cccs2)cc1
result: 8.64

query: Annotate the compound Clc1ccccc1CSc1nnc(-c2ccccn2)n1Cc1ccco1 with its measured pKi.
result: 6.97

query: Give the value of pKi reported for the following: Fc1cc(F)cc(CSc2nnc(-c3ccccn3)n2Cc2cccs2)c1
result: 7.03

----------
Target: M2 (Homo sapiens, UniProt P08172)
Sequence (P08172 whole entry): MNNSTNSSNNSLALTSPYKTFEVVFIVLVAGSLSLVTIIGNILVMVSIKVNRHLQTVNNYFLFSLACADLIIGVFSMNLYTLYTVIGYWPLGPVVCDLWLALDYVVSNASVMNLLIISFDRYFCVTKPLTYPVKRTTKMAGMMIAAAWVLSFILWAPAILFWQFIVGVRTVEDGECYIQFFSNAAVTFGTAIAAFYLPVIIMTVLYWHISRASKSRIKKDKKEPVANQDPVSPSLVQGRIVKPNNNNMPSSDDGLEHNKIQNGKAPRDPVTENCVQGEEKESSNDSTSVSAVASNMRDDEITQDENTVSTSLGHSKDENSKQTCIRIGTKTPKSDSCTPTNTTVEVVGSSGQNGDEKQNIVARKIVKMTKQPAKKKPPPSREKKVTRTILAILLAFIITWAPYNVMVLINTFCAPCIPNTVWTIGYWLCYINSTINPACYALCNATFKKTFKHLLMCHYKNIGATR
Assay: PDSP radioligand binding assay
Conditions: Table 10
Experimental: The compound was initially screened in radioligand binding assays at a constant concentration (10 μM) to identify possible activity of the compound. Results showing significant activity in the initial screen were selected for Ki determinations. As a representative of the Chemotype II series, the MLPCN probe molecule 2{8} was subjected to a binding assay panel of 44 GPCR and other molecular targets by the Pyschoactive Drug Screening Program (PDSP) (Table 10). […]
readoutLabel: Ki

query: Look up and report measured Ki (M2 (Homo sapiens, UniProt P08172)) for the following compound: Clc1ccc(CSc2nnc(-c3ccccn3)n2Cc2ccco2)cc1Cl
result: > 10 µM

----------
molecular target: 5ht2b (Homo sapiens); experiment: PDSP radioligand binding assay; conditions: Table 10
Sequence (P41595 whole entry, species assumed): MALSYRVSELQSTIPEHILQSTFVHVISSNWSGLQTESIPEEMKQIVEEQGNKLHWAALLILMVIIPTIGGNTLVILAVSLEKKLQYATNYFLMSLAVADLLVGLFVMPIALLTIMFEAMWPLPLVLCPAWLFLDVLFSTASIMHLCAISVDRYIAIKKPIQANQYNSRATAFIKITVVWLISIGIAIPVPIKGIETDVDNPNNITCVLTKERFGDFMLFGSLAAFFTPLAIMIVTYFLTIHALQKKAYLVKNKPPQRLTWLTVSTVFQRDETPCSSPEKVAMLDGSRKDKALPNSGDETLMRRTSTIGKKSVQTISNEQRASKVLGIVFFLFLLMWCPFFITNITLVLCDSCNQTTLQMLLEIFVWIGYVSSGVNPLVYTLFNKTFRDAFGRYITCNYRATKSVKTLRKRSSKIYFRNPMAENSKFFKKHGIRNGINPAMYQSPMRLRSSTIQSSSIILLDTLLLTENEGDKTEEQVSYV
readoutLabel: Ki (µM)
Report as a plain number; the unit µM is understood.

query: Please give measured Ki of the following entry: Clc1ccc(CSc2nnc(-c3ccccn3)n2Cc2ccco2)cc1Cl
result: 1.24

----------
target: MOR (Homo sapiens); experiment: High content imaging β-arrestin translocation assay, MOR antagonist (MOR HCS); format: cell-based; conditions: antagonist; average; read-out: Potency, Antitarget MOR HCS
Sequence (P35372 whole entry): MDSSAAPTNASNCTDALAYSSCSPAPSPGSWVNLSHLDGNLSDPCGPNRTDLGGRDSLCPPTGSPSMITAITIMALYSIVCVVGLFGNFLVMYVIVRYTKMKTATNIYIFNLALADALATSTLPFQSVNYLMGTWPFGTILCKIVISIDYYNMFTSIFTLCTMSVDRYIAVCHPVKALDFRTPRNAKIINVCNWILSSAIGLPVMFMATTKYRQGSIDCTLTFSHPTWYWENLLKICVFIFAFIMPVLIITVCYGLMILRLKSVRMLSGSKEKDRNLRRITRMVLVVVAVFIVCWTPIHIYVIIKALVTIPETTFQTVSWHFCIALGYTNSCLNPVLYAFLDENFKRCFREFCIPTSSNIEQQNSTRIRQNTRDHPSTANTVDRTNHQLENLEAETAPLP
Quick list: IC50 per entry.

Here are 4 compounds together with their reported answers.
compound	target	IC50
CN1CCN(CCCNC(=O)Cn2c(=O)c3cccn3c3cccnc32)CC1 [Compound 1{20}]	MOR (Homo sapiens)	> 32 µM
COc1ccc(N2CCN(CCNC(=O)Cn3c(=O)c4cccn4c4c(C)ccnc43)CC2)cc1 [1{26}]	MOR (Homo sapiens)	> 32 µM
Cc1ccc(N2CCN(CCCNC(=O)Cn3c(=O)c4cccn4c4cccnc43)CC2)cc1 [1{12}]	MOR (Homo sapiens)	18.8 µM
COc1ccc(N2CCN(CCCNC(=O)Cn3c(=O)c4cccn4c4ccccc43)CC2)cc1 [1{2}]	MOR (Homo sapiens)	> 32 µM

query: Under MOR (Homo sapiens), report IC50 for Cc1ccnc2c1n1cccc1c(=O)n2CC(=O)NCCCN1CCN(c2ccc(Cl)cc2)CC1 [Compound 1{6}]
result: > 32 µM

----------
molecular target: M1 (Homo sapiens, UniProt P11229); experiment: PDSP radioligand binding assay; details: Table 10
Sequence (P11229 whole entry): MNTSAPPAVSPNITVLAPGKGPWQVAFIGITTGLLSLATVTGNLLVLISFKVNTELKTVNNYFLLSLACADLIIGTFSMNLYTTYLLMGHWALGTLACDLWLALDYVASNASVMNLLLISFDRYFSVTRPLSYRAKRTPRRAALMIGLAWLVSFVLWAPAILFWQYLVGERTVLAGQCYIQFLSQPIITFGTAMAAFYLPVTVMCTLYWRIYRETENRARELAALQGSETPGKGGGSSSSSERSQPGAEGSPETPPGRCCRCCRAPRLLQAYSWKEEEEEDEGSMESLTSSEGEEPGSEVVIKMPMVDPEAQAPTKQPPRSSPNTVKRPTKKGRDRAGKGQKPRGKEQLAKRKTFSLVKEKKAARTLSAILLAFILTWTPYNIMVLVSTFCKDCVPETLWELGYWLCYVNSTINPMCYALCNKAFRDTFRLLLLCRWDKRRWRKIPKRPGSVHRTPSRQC
pKi: −log10 of the molar value.
readoutLabel: pKi

query: Given the compound Clc1ccc(CSc2nnc(-c3ccccn3)n2Cc2ccco2)cc1Cl , write its reported pKi.
result: < 5.00

----------
target: Alpha1D (Homo sapiens, UniProt P25100); test: PDSP radioligand binding assay; details: Table 10
Sequence (P25100 whole entry): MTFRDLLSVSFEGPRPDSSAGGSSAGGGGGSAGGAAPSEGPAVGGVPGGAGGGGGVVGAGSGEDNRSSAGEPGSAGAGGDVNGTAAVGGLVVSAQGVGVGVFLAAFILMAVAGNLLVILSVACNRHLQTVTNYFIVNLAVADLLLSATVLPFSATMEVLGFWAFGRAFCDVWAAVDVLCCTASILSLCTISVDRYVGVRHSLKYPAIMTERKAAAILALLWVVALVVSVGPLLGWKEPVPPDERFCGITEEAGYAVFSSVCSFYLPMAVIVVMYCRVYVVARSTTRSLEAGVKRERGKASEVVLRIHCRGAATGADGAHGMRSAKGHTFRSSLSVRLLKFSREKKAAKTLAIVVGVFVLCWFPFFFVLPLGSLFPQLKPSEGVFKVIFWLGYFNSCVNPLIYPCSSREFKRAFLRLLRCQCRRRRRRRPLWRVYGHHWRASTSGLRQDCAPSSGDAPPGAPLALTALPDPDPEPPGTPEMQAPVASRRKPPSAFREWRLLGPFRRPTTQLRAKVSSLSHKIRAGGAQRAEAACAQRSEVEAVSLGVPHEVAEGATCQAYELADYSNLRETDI
pKi: −log10 of the molar value.
readoutLabel: pKi

query: Tell me its pKi given Clc1ccc(CSc2nnc(-c3ccccn3)n2Cc2ccco2)cc1Cl as the entry.
result: < 5.00
